# protocolText: DUSP6 inhibitors restoring Erk phosphorylation by chemical complementation, primary imaging in DUSP6-transfected HeLa (AID 609)
# assayConditions: HeLa MKP-3 transfected, phospho-Erk imaging KS statistic; measured here: nuclear pErk red intensity z-score; at 10 µM; stronger effect = higher value; cells stimulated with TPA for 15 min
Is z-score at least 0.2? Then 1.0. If not, 0.0.

Illustrative cases are given below, each with its answer.
{"molecule": "CCC1(C)Cc2c(sc3c2c(=O)n(C)c2nnc(SCc4ccccc4)n32)CO1 (configuration not stated)", "className": 0.0}
{"molecule": "O=C(c1coc(=O)c(Br)c1)N1CCCc2ccccc21", "className": 0.0}

stdin: z-score >= 0.2 for `Cc1nc(NS(=O)(=O)c2ccccc2)sc1NC(=O)OCCN(C)C` ?
stdout: 0.0

stdin: Textbook exercise: given the entry `O=C(O)c1cc(O)c2c(c1)C(=O)c1cccc(O)c1C2=O` , state whether its z-score is greater than or equal to 0.2.
stdout: 1.0

stdin: Hello, I need to know if `Cc1ccc(-n2c(N)c(C(N)=O)sc2=S)cc1` has measured z-score not below 0.2. Thanks!
stdout: 1.0

stdin: Textbook exercise: given the entry `COc1ccc(OCC(=O)N2CCN(C(=O)c3cccc4ccccc34)CC2)cc1` , state whether its z-score is greater than or equal to 0.2.
stdout: 0.0

stdin: Please check the record `CN1CCN(c2nc3c(c(=O)n(C)c(=O)n3C)n2Cc2cccc3ccccc23)CC1` and state if its z-score is at or above 0.2.
stdout: 1.0

stdin: Evaluate `CC[C@H]1OC(=O)C[C@@H](O)[C@H](C)[C@@H](O[C@@H]2O[C@H](C)C[C@H](N(C)C)[C@H]2O)[C@@H](CC=O)C[C@@H](C)C(=O)C=C[C@]2(C)O[C@H]2[C@@H]1C` : z-score at minimum 0.2?
stdout: 0.0

stdin: Does the reported z-score for COc1ccc(CCN(C)CCCC(C#N)(c2cc(OC)c(OC)c(OC)c2)C(C)C)cc1OC (configuration not stated) fall at or above the 0.2 mark?
stdout: 0.0

stdin: Check the entry `CCOC(=O)c1[nH]c2ccc(Br)cc2c1NC(=O)CNC` : does z-score equal or exceed 0.2?
stdout: 1.0

stdin: Determine whether measured z-score meets or exceeds 0.2 for `CCCCCCC(=O)N1CCN(c2cc3c(cc2F)c(=O)c(C(=O)O)cn3CC)CC1`
stdout: 0.0

stdin: z-score >= 0.2 for `Nc1nnnn1/N=C/c1ccccn1` ?
stdout: 0.0

stdin: Could you tell me if the measured z-score of CCCCNC(=O)C(C#N)c1nc2ccccc2nc1N1CCN(c2ccccc2F)CC1 (configuration not stated) reaches 0.2 or more?
stdout: 1.0

stdin: # bool: z-score of CCOC(=O)c1c(N)sc2c1CCC1C(=O)N(C3CCCCC3)C(=O)C21 (configuration not stated) >= 0.2
stdout: 1.0

stdin: Could you tell me if the measured z-score of `CC(C)C(=O)N1CCN(c2nc(-c3ccccc3)c3c(c2C#N)CCCC3)CC1` reaches 0.2 or more?
stdout: 0.0

stdin: Check if z-score >= 0.2 (inclusive). Item: `C=CCNc1nc(-c2ccc(O)c(C(N)=O)c2)cs1`
stdout: 1.0

stdin: Threshold query (z-score >= 0.2) on `CCOC(=O)CSc1nc(NC#N)nc(N(CC)CC)n1`
stdout: 0.0

stdin: Given O=C(CNC1C(=O)Nc2ccccc21)Sc1ccccc1 (configuration not stated) , state whether its z-score is at least 0.2.
stdout: 0.0

stdin: In plain terms: is recorded z-score at least 0.2 for O=C(C1=C(O)C(=O)N(c2ncccn2)C1c1cccc(Cl)c1)c1ccco1 (configuration not stated) ?
stdout: 0.0

stdin: Threshold query (z-score >= 0.2) on `COc1ccc(N/C=C(\C#N)c2nc3ccccc3n2C)c(OC)c1`
stdout: 1.0

stdin: Dear colleague, could you confirm whether CC(COc1ccccc1)NC(C)C(O)c1ccc(O)cc1 (configuration not stated) has z-score at or above 0.2?
stdout: 1.0

stdin: Is it the case that `COc1ccc(Cn2c(CCCO)nc3ccccc32)cc1OC` has z-score reaching or exceeding 0.2?
stdout: 1.0

meta.source: PubChem BioAssay
